Test system: A498 renal
measurement notes: NCI-60 one-dose screen, 48 h
particulars: 10 µM unless noted
Compounds without any hit were thinned out: in the full panel of roughly 83,000, 20% have a hit. The source made the active and inactive calls. How the source made its calls: active means growth percent below 10; inactive means the rest.
Parameter call: string, one of T = active, F = inactive

Use the examples below as a reference point.
- compound: "COc1ccc(-c2nn(-c3ccccc3)cc2/C=C/C(=O)NNC(=O)Nc2ccc(C)cc2)cc1"
  assigned category: "F"
- compound: "COc1cccc(C(=O)NNc2nc(Cl)nc(Cl)n2)c1"
  assigned category: "F"
- compound: "c1nc2ccc(-c3cc4ccc5[nH]ncc5c4c4c3CCCC4)cc2[nH]1"
  assigned category: "F"

Input: How was O=C1NC(=O)/C(=C/c2c(-c3ccccc3)nc3sc(COc4ccccc4)nn23)S1 classified in this test?
Output: F

Input: Outcome logged for COc1ccc(C(=O)/C=C/c2ccc(N3CCCCC3)cc2)cc1OC in this assay:
Output: F

Input: Recorded test outcome, item C#COc1cccc(Nc2ncnc3cc(NC(=O)[C@@H](C)Cl)ccc23)c1
Output: F

Input: Query: recorded result category for CNC(C)[C@H]1CCC2C3CC=C4C(=O)[C@@H](NC(=O)C=C(C)C)CC[C@]4(C)C3CC[C@@]21C (stereo partly drawn) in this test
Output: F

----------
System: SF-295 CNS
measurement notes: NCI-60 one-dose screen, 48 h (100 = growth as untreated, 0 = no growth, -100 = all killed)
particulars: 10 µM unless noted
The panel holds about 83,000 compounds, 20% with a hit somewhere; the sample as a whole holds those more often. Active and inactive are the calls of the source. The calls were made as follows: active = growth percent below 10; inactive = the rest.
Entries annotated with measured growth

- compound: "COc1ccc(C(=S)N2CCN(c3ccc(Cl)cc3)CC2)cc1"
  growth: "117% (inactive)"
- compound: "CC1=C(C(=O)Nc2nc(-c3ccc(Cl)cc3)cs2)[C@H](c2ccc(O)cc2)NC(=O)N1"
  growth: "95.7% (inactive)"
- compound: "[2H]C([2H])([2H])Oc1ccc(F)cc1/C=C/C(=O)/C=C(O)/C=C/c1cc(F)ccc1OC([2H])([2H])[2H]"
  growth: "103% (inactive)"
- compound: "CCc1ccc(CCC(=O)Nc2ncc(Cc3ccccc3)s2)o1"
  growth: "15.1% (inactive)"
- compound: "O=C(O)[C@@H](Cc1ccc2ccccc2c1)NC(=O)n1c2ccccc2c2ccccc21"
  growth: "11.6% (inactive)"
- compound: "CCN1CCN(c2cc(C)nc(N(CCNc3ccnc4cc(Cl)ccc34)Cc3ccc4c(c3)OCO4)n2)CC1"
  growth: "-63.5% (active)"

Lab note: O=C(Nc1ccccc1O)c1ccc(CNC(=O)c2ccsc2Nc2ccnc(C(F)(F)F)c2)cc1 gave growth of 2.43% (active)

For this compound ( Cc1ccc(NC(=O)Cn2c(Br)nc3c2c(=O)n(C)c(=O)n3C)cc1 ), measured growth is 0.92% (active)

growth for CCN(CC)c1ccc(/C=N/NC(=O)Cc2ccc(Nc3ccnc(C(F)(F)F)c3)cc2)c(O)c1 is 17.9% (inactive)

Quick note, growth for Cc1ccc(/C=C(\C#N)n2nnc3cc(F)c(F)cc32)cc1 landed at 36.6% (inactive)

// field: growth; key: C#CCNC(=O)[C@]1(C)CCC[C@@]2(C)[C@H]1CC=C1C=C(C(C)C)CC[C@@H]12 ; value = 91.6% (inactive)

growth measured on O=C1/C(=C2\SC(=S)N(C3CC3)C2=O)SC(=S)N1C1CC1 = 98.6% (inactive)

The reported growth of the compound CC(C)=CCNc1ncnc2c1ncn2C1OC(CO)C(O)C1O (stereo unspecified) was -24.2% [1 mM] (active)

Value of growth reported for the compound Cc1ccc(-c2nc3nc(-c4ccccc4)nc(N4CCCN(S(C)(=O)=O)CC4)c3o2)cc1 is 87.4% (inactive)

Measured growth of CCOC(=O)c1[nH]c2c(c1C)-c1[nH]c(=O)c(S(=O)(=O)c3ccccc3)cc1SC2 : 8.44% [100 µM] (active)

The compound listed as Cc1nn(-c2ccccc2)c(N)c1N=C1NC(=O)/C(=C/c2ccc(Br)cc2)S1 has a reported growth of 87.2% (inactive)

Record c1ccc(CCNc2c3ccccc3nc3ccccc23)cc1 . Reported growth: 34.9% (inactive)

// growth value for C[C@H](C(=O)N(CCc1ccc(Cl)c(Cl)c1)Cc1cncs1)[C@@H]1CC[C@H](C[C@H](C)n2cc(CN3CCC(c4ccc(Cl)cc4)CC3)nn2)O1 : 99.2% (inactive)

Numbers sourced from PubChem BioAssay (NCI).
